TARGET OR TEST SYSTEM: TICA0010 Fab
TEST METHOD NOTES: HTRF competition binding selectivity assay, TICA0010 His-Fab
Design: species or system human
STATED CONDITIONS: first series (Table 2), not DMSO normalised; read-out: IC50 (uM) for inhibition of biotinylated ticagrelor binding to TICA00l0 his-Fab
PARAMETER: IC50 (µM)

- CCCSc1nc(N[C@@H]2C[C@H]2c2ccc(F)c(F)c2)c2nnn([C@@H]3C[C@H](OCCO)[C@@H](O)[C@H]3O)c2n1 [Ticagrelor]: 0.122
- CSCCNc1nc(SCCC(F)(F)F)nc2c1ncn2[C@@H]1O[C@H](COP(=O)(O)OP(=O)(O)C(Cl)(Cl)P(=O)(O)O)[C@@H](O)[C@H]1O [Cangrelor]: 102
- CCCSc1nc(N[C@@H]2C[C@H]2c2ccc(F)c(F)c2)c2nnn([C@@H]3C[C@H](O)[C@@H](O)[C@H]3O)c2n1 [TAM]: 0.124
